Molecular target: cyclo-oxygenase
Assay: Inhibition of cyclo-oxygenase in an enzyme assay according to the method of Blackwell and Flower
Assay type: biochemical
Settings: Table I, read-out: ED50 for inhibition of cyclo-oxygenase
Counter-ions that a name gives are not always drawn.
test readout: IC50

Known results for molecules:
[
  {
    "molecule": "CNC1=NN(c2cccc(C(F)(F)F)c2)CC1 [Example 1]",
    "IC50": "~300 nM"
  },
  {
    "molecule": "FC(F)(F)c1cccc(N2CCC(NCc3ccccc3)=N2)c1 [Example 5, hydrochloride]",
    "IC50": "~300 nM"
  },
  {
    "molecule": "CCCCNC1=NN(c2cccc(C(F)(F)F)c2)CC1 [Example 4]",
    "IC50": "< 300 nM"
  },
  {
    "molecule": "CCNC1=NN(c2cccc(C(F)(F)F)c2)CC1 [Example 2]",
    "IC50": "~800 nM"
  }
]

input: Bench note: what IC50 did CCCNC1=NN(c2cccc(C(F)(F)F)c2)CC1 [Example 3] show?
output: < 300 nM

Data provenance: patent US4564684A
